Molecular target: HDAC6 human recombinant (Homo sapiens)
Sequence (Q9UBN7 1-1215): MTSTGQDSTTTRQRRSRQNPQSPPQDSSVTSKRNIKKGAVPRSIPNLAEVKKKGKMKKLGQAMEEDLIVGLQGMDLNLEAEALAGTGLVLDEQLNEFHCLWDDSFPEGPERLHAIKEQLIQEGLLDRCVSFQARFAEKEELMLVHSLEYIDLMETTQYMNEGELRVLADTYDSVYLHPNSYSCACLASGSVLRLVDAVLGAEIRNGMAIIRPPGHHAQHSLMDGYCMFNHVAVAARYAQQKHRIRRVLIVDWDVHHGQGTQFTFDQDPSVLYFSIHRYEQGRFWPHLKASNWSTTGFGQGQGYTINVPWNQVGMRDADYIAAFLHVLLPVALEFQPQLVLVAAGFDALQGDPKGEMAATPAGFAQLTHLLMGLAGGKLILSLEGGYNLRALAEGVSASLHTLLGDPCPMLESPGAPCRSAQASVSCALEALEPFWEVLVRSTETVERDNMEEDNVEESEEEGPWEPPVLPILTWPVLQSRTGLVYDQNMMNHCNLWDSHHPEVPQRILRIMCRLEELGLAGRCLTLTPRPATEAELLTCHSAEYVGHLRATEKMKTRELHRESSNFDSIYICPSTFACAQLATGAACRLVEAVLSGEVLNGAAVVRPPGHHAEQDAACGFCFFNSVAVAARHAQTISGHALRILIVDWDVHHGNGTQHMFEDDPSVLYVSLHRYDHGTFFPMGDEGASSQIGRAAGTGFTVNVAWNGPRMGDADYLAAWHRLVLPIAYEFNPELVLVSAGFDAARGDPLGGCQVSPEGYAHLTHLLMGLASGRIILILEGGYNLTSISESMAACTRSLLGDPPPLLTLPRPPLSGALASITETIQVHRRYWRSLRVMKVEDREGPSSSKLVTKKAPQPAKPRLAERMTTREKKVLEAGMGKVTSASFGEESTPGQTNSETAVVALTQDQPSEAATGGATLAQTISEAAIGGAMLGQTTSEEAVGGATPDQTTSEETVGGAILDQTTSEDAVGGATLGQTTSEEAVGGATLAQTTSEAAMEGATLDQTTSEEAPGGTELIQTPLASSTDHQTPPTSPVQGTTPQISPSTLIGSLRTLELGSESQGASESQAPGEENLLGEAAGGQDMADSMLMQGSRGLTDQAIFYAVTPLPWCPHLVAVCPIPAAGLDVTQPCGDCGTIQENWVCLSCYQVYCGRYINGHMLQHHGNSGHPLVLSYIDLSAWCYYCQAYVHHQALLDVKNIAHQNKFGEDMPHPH
Assay: HDAC enzyme activity inhibition (in vitro), fluorimetric HDAC6 assay
Conditions: samples at 0.1, 1, 10, 100 and 1000 nM, 37° C. 60 minutes, fluorescence Ex 390, Em 460
pIC50: −log10 of the molar value.
Returns one of rule met or rule not met; rule met when pIC50 is >= 6.

Q. Tell me whether pIC50 is at least 6 here: C=C(C)Cn1ccc(-c2nnc(C(F)F)o2)cc1=O
A. rule met

Q. Tell me whether pIC50 is at least 6 here: O=c1cc(-c2nnc(C(F)(F)F)o2)ccn1Cc1ccccc1F
A. rule not met

Q. Tell me whether pIC50 is at least 6 here: O=C(N[C@@H](Cn1ccc(-c2nnc(C(F)F)o2)cc1=O)c1ccccc1)N1CCOCC1
A. rule met

Q. Tell me whether pIC50 is at least 6 here: O=C1c2ccccc2C(=O)N1CCCCn1ccc(-c2nnc(C(F)F)o2)cc1=O
A. rule met

Q. Tell me whether pIC50 is at least 6 here: O=c1cc(-c2nnc(C(F)F)o2)ccn1Cc1cc(F)c(F)cc1F
A. rule met

Q. Tell me whether pIC50 is at least 6 here: CS(=O)(=O)c1ccc(C(=O)Cn2ccc(-c3nnc(C(F)(F)F)o3)cc2=O)cc1
A. rule not met

Q. Tell me whether pIC50 is at least 6 here: CCn1ccc(-c2nnc(C(F)(F)F)o2)cc1=O
A. rule not met

Q. Tell me whether pIC50 is at least 6 here: O=C(Cn1ccc(-c2nnc(C(F)(F)F)o2)cc1=O)c1ccc2ccccc2c1
A. rule not met

Q. Tell me whether pIC50 is at least 6 here: O=C(Cn1ccc(-c2nnc(C(F)(F)F)o2)cc1=O)c1coc2ccccc12
A. rule not met
